- experimental-target: Platelet glycoprotein 4 (Mus musculus)
- test-protocol: Modulation of CD36 in mouse J774A.1 cells assessed as inhibition of R-FSL1-induced NO over production at 1 uM preincubated for 1 hr followed by overnight R-FSL1 stimulation by DAN-fluorescence assay relative to control
- Type: cell-based
The source made the active and inactive calls. The calls are words filed in the database; no cut-off is given here.
// classify into YES = active, NO = inactive

Which outcome did this test record for the compound Cc1cc(F)cc(C)c1CN(NC(=O)[C@H](C)NC(=O)[C@@H](Cc1c[nH]c2ccccc12)NC(=O)[C@@H](N)Cc1cnc[nH]1)C(=O)N[C@H](Cc1ccccc1)C(=O)N[C@@H](CCCCN)C(N)=O ? YES

Which outcome did this test record for the compound C[C@H](NC(=O)[C@@H](Cc1c[nH]c2ccccc12)NC(=O)[C@@H](N)Cc1cnc[nH]1)C(=O)NN(Cc1ccc(C(F)(F)F)cc1)C(=O)N[C@H](Cc1ccccc1)C(=O)N[C@@H](CCCCN)C(N)=O ? NO

Which outcome did this test record for the compound C[C@H](NC(=O)[C@@H](Cc1c[nH]c2ccccc12)NC(=O)[C@@H](N)Cc1cnc[nH]1)C(=O)NN(Cc1ccc(Cl)cc1)C(=O)N[C@H](Cc1ccccc1)C(=O)N[C@@H](CCCCN)C(N)=O ? YES

Which outcome did this test record for the compound C[C@H](NC(=O)[C@@H](Cc1c[nH]c2ccccc12)NC(=O)[C@@H](N)Cc1cnc[nH]1)C(=O)NN(Cc1ccc(F)cc1)C(=O)N[C@H](Cc1ccccc1)C(=O)N[C@@H](CCCCN)C(N)=O ? YES

Which outcome did this test record for the compound C[C@H](NC(=O)[C@@H](Cc1c[nH]c2ccccc12)NC(=O)[C@@H](N)Cc1cnc[nH]1)C(=O)NN(Cc1ccc(I)cc1)C(=O)N[C@H](Cc1ccccc1)C(=O)N[C@@H](CCCCN)C(N)=O ? NO

Values compiled from ChEMBL document CHEMBL4017547.
